FYI, the data here is from ChEMBL document CHEMBL2062391.

System: MIA PaCa-2
Assay: Cytotoxicity against human MIAPaCa2 cells grown in nutrient-rich medium after 24 hrs by WST8 assay
Format: cell-based
Details: mia paca-2, 24 h
Measured Property: Activity

CO[C@@H]1C=C(COC(=O)c2ccccc2)[C@H](OC(C)=O)[C@H](OC(=O)c2ccccc2)[C@@H]1O : Non-toxic
COc1ccccc1COC(=O)c1ccccc1 : Non-toxic
Nc1ccn([C@@H]2O[C@H](CO)[C@@H](O)C2(F)F)c(=O)n1 : Non-toxic

----------
Test system: PSN1
Test: Cytotoxicity against human PSN1 cells grown in nutrient-deprived medium after 24 hrs by WST8 assay
Format: functional
Lab note: cut-off is 100 µM. Strictly less in PC50 is TRUE. Exactly 100 µM or more is FALSE.

Worked examples, 6 compounds total:
COc1ccccc1COC(=O)c1ccccc1 : FALSE
O=C(OC[C@@]1(O)C(=O)C=C[C@H]2[C@@H]1[C@H]1C=C[C@@H]2C(=O)[C@]1(O)COC(=O)c1ccccc1)c1ccccc1 : TRUE
COc1cc(C[C@H]2C(=O)OC[C@@H]2Cc2ccc(OC)c(OC)c2)ccc1O : TRUE
CC(=O)O[C@@H]1C(COC(=O)c2ccccc2)=C[C@H]2O[C@H]2[C@H]1OC(=O)c1ccccc1 [UVARIDAPOXIDE A] : TRUE
Nc1ccn([C@@H]2O[C@H](CO)[C@@H](O)C2(F)F)c(=O)n1 : FALSE
CC(=O)O[C@H]1C(COC(=O)c2ccccc2)=C[C@@H](O)[C@@H](O)[C@H]1OC(=O)c1ccccc1 : FALSE

Please let me know if `C/C(=C\COC(=O)c1ccccc1)COC(=O)c1ccccc1` shows PC50 below 100 µM.
TRUE
